# target-of-assay: D(2) dopamine receptor (Bos taurus, UniProt P20288)
# Sequence (P20288 whole entry): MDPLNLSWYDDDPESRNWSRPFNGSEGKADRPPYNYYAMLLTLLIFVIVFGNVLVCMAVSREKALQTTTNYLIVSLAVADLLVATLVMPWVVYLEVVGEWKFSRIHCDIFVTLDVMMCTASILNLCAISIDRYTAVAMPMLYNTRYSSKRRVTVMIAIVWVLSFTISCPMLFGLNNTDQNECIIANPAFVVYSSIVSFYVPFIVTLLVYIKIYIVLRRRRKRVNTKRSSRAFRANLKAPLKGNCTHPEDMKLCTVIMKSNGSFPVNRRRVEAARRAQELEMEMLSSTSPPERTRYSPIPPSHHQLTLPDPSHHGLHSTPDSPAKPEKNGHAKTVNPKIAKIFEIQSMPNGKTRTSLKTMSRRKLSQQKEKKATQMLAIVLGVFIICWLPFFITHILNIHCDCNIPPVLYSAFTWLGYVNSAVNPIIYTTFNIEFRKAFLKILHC
# test-name: Binding affinity was evaluated for the displacement of [3H]spiperone against bovine Dopamine receptor D2
assay-endpoint: Ki (µM)
Report the figure in µM without appending any unit label.

For Ic1ccc(N2CCN(Cc3cnn4ccccc34)CC2)cc1 , what is its reported Ki? 1.4

For O=C(c1cnn2ccccc12)N1CCN(c2ccc(Cl)cc2)CC1 , what is its reported Ki? 30

###

For each entry below, report its pKi value.
# target-of-assay: D(4) dopamine receptor (Homo sapiens, UniProt P21917)
# Sequence (P21917 whole entry): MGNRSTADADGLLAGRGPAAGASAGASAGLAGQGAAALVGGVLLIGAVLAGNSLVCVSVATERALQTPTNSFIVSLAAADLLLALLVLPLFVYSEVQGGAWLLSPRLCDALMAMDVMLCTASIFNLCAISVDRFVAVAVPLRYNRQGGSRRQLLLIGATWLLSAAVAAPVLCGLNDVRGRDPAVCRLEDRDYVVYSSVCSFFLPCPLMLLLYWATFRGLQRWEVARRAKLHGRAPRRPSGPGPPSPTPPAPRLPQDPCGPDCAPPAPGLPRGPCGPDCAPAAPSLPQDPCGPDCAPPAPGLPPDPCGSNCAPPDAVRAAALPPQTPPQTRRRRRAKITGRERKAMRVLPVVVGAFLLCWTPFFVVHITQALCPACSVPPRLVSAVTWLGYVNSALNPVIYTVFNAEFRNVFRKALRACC
Friendly reminder that pKi comes from taking -log10 of the concentration in mol/L.

For O=C(c1cnn2ccccc12)N1CCN(c2ccc(Cl)cc2)CC1 , what is its reported pKi? 4.64

For Ic1ccc(N2CCN(Cc3cnn4ccccc34)CC2)cc1 , what is its reported pKi? 8.52
